All figures here come from patent US5599808A.

Test: Concentration of dissolved indolocarbazole obtained in aqueous solutions (HPLC)
Settings: peg 1000/ba/pvp/h2o, organic solvent or mixture, Concentration Obtained, Example 15: 47.5% PEG 1000, 2.5% BA, 2.5% PVP, 47.5% H2O; target 10 mg/ml
assay-readout: solubility thermodynamic

Incoming: # solubility thermodynamic lookup, item COC(=O)C1(O)CC2OC1(C)n1c3ccccc3c3c4c(c5c6ccccc6n2c5c31)C(=O)NC4 (stereo not shown) [Compound K-252a]
Outgoing: 10000 µg/mL

###

Assay: Concentration of dissolved indolocarbazole obtained in aqueous solutions (HPLC)
Settings: 50% peg 1000, 50% h2o, organic solvent or mixture, Concentration Obtained, Example 3: 50% PEG 1000, 50% H2O; target 10 mg/ml
assay-readout: solubility thermodynamic (µg/mL)
Write it as a number; the unit µg/mL goes unstated.

Examples with their reported solubility thermodynamic follow.
COC(=O)C1(O)CC2OC1(C)n1c3ccccc3c3c4c(c5c6cc(O)ccc6n2c5c31)C(=O)NC4 (stereo not drawn) [Compound B]    4440
CN[C@@H]1C[C@H]2O[C@@](C)([C@@H]1OC)n1c3ccccc3c3c4c(c5c6ccccc6n2c5c31)C(=O)NC4 [Staurosporine, staurosporine]    1650

// moving on: another record for solubility thermodynamic
Incoming: # solubility thermodynamic lookup, item COC(=O)C1(O)CC2OC1(C)n1c3ccccc3c3c4c(c5c6ccccc6n2c5c31)C(=O)NC4 (stereo not drawn) [Compound K-252a]
Outgoing: 1820
